System: MEC1 cells
experiment description: MTS cell viability assay, MEC1 cells (control or overexpressing UGT2B17)
Type: cell-based, human
test conditions: Homo sapiens; MEC1 cells overexpressing UGT2B17, MTS, 72 h; read-out: 2B17 IC50
assay readout: log10 of IC50 (log10 of the value in µM)

molecule="CC1(C)CCC(CN2CCN(c3ccc(C(=O)NS(=O)(=O)c4ccc(NCC5CCOCC5)c([N+](=O)[O-])c4)c(Oc4cnc5[nH]ccc5c4)c3)CC2)=C(c2ccc(Cl)cc2)C1 [Venetoclax, venetoclax]" value=0.62
molecule="Cn1c(CCCC(=O)O)nc2cc(N(CCCl)CCCl)ccc21 [Bendamustine, bendamustine]" value=1.88
molecule="CC[C@H](Nc1ncnc2[nH]cnc12)c1nc2cccc(F)c2c(=O)n1-c1ccccc1 [Idelalisib, idelalisib]" value=0.87
molecule="C=CC(=O)N1CCC[C@@H](n2nc(-c3ccc(Oc4ccccc4)cc3)c3c(N)ncnc32)C1 [Ibrutinib, ibrutinib]" value=0.62
molecule="Nc1nc(F)nc2c1ncn2[C@@H]1O[C@H](CO)[C@@H](O)[C@@H]1O [Fludarabine, fludarabine]" value=1.77
molecule="O=C(O)CCCc1ccc(N(CCCl)CCCl)cc1 [Chlorambucil, chlorambucil]" value=1.09

====

Test system: JVM2 cells
experiment description: MTS cell viability assay, JVM2 cells (control or overexpressing UGT2B17)
Type: cell-based, human
test conditions: Homo sapiens, JVM-2; JVM2 cells overexpressing UGT2B17, MTS, 72 h; read-out: 2B17 IC50
assay readout: log10 IC50 (log10 of the value in µM)

compound="C=CC(=O)N1CCC[C@@H](n2nc(-c3ccc(Oc4ccccc4)cc3)c3c(N)ncnc32)C1 [Ibrutinib, ibrutinib]" value=0.95
compound="O=C(O)CCCc1ccc(N(CCCl)CCCl)cc1 [Chlorambucil, chlorambucil]" value=0.94
compound="CC1(C)CCC(CN2CCN(c3ccc(C(=O)NS(=O)(=O)c4ccc(NCC5CCOCC5)c([N+](=O)[O-])c4)c(Oc4cnc5[nH]ccc5c4)c3)CC2)=C(c2ccc(Cl)cc2)C1 [Venetoclax, venetoclax]" value=0.47
compound="Cn1c(CCCC(=O)O)nc2cc(N(CCCl)CCCl)ccc21 [Bendamustine, bendamustine]" value=1.80
compound="CC[C@H](Nc1ncnc2[nH]cnc12)c1nc2cccc(F)c2c(=O)n1-c1ccccc1 [Idelalisib, idelalisib]" value=0.47
compound="Nc1nc(F)nc2c1ncn2[C@@H]1O[C@H](CO)[C@@H](O)[C@@H]1O [Fludarabine, fludarabine]" value=1.18

====

Tested on: MEC1 cells
experiment description: MTS cell viability assay, MEC1 cells (control or overexpressing UGT2B17)
Type: cell-based, human
test conditions: Homo sapiens; MEC1 control cells, MTS, 72 h; read-out: CTRL IC50
Description: Cells were plated at 1 × 10^4 cells/well (MEC1) or at 5 × 10^4 cells/well (JVM2) in 96-well U-bottom tissue culture plates (BD Bioscience, Mississauga, ON, Canada). […] IC50 were calculated by fitting variable slope non-linear curves to normalised response data from drug treatments using GraphPad Prism v5 (GraphPad Software Inc., La Jolla, CA, USA). […]
assay readout: IC50 (µM)

smiles_code=C=CC(=O)N1CCC[C@@H](n2nc(-c3ccc(Oc4ccccc4)cc3)c3c(N)ncnc32)C1 assay_readout=IC50 value=0.99
smiles_code=O=C(O)CCCc1ccc(N(CCCl)CCCl)cc1 assay_readout=IC50 value=7.99
smiles_code=CC1(C)CCC(CN2CCN(c3ccc(C(=O)NS(=O)(=O)c4ccc(NCC5CCOCC5)c([N+](=O)[O-])c4)c(Oc4cnc5[nH]ccc5c4)c3)CC2)=C(c2ccc(Cl)cc2)C1 assay_readout=IC50 value=2.22
smiles_code=Nc1nc(F)nc2c1ncn2[C@@H]1O[C@H](CO)[C@@H](O)[C@@H]1O assay_readout=IC50 value=29.3
smiles_code=CC[C@H](Nc1ncnc2[nH]cnc12)c1nc2cccc(F)c2c(=O)n1-c1ccccc1 assay_readout=IC50 value=1.73
smiles_code=Cn1c(CCCC(=O)O)nc2cc(N(CCCl)CCCl)ccc21 assay_readout=IC50 value=60.1

====

study system: UGT1A4 (Homo sapiens)
Sequence (P22310 29-534): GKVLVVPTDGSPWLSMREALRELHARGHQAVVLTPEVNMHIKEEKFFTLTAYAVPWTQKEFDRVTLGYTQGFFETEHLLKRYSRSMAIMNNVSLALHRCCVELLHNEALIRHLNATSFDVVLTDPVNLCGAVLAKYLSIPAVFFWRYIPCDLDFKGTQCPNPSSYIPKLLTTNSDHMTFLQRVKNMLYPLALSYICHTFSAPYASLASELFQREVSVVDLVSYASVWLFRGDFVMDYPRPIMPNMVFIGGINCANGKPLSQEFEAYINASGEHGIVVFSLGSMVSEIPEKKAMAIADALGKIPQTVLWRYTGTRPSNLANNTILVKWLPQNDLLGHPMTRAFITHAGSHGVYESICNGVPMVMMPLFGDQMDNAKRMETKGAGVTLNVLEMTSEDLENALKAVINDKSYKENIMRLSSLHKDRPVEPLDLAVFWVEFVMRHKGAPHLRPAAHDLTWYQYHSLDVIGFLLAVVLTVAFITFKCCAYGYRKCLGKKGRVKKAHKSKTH
experiment description: Glucuronidation assay with UGT1A4 supersomes
test conditions: UGT1A4 inhibitory constant Ki, UGT1A4; substrate ibrutinib; inhibitor hecogenin
assay readout: Ki (nM)

smiles_code=C[C@@H]1CC[C@@]2(OC1)O[C@H]1C[C@H]3[C@@H]4CC[C@H]5C[C@@H](O)CC[C@]5(C)[C@H]4CC(=O)[C@]3(C)[C@H]1[C@@H]2C value=2800

====

study system: human liver microsomes (Homo sapiens)
experiment description: Glucuronidation assay with human liver microsomes
test conditions: UGT1A4 inhibitory constant Ki, Liver; substrate idelalisib; inhibitor hecogenin
pKi: −log10 of the molar value.
assay readout: pKi

smiles_code=C[C@@H]1CC[C@@]2(OC1)O[C@H]1C[C@H]3[C@@H]4CC[C@H]5C[C@@H](O)CC[C@]5(C)[C@H]4CC(=O)[C@]3(C)[C@H]1[C@@H]2C study_system="human liver microsomes (Homo sapiens)" assay_readout=pKi value=6.05

====

experiment description: Glucuronidation assay with human liver microsomes
test conditions: human, human liver microsomes, pH 7.5
assay readout: Km at 6 h (µM)

smiles_code=Nc1nc(F)nc2c1ncn2[C@@H]1O[C@H](CO)[C@@H](O)[C@@H]1O assay_readout="Km at 6 h" value=878
